All figures here come from patent US20240116985A1.

Test: Solubility in PBS
Format: physicochemical
Details: Solubility (uM)
assay readout: Solubility

molecule	measurement
CC(=O)N1CCC[C@]12CC=CCCCC1(CCCC=CCCCOC(=O)N3CC[C@@](C(=O)N[C@@H](Cc4ccsc4)C(=O)N[C@@H](Cc4csc5ccccc45)C(=O)N[C@@H](CCC(N)=O)C(N)=O)(C3)NC(=O)[C@H](CC(N)=O)NC(=O)[C@H](Cc3ccccc3)NC(=O)[C@H](CCCCNC(=O)C3CCN(C4CCN(C)CC4)CC3)NC(=O)[C@H](C)NC(=O)[C@H](CC(=O)O)NC(=O)[C@H](CC(=O)O)NC1=O)NC(=O)[C@H](CC(C)(C)C)NC(=O)[C@H](CC(=O)O)NC2=O (stereo partly drawn)	21 µM
CC(=O)N1CCC[C@]12CC=CCCCC1(CCCC=CCCCOC(=O)N3CC[C@@](C(=O)N[C@@H](Cc4ccccc4C(N)=O)C(=O)N[C@@H](Cc4csc5ccccc45)C(=O)N[C@@H](CCC(N)=O)C(N)=O)(C3)NC(=O)[C@H](CC(N)=O)NC(=O)[C@H](Cc3ccccc3)NC(=O)[C@H](C)NC(=O)[C@H](C)NC(=O)[C@H](CC(=O)O)NC(=O)[C@H](CC(=O)O)NC1=O)NC(=O)[C@H](CC(C)(C)C)NC(=O)[C@H](CC(=O)O)NC2=O (stereo partly drawn)	48 µM
CC(=O)N1CCC[C@]12CC=CCCCC1(CCCC=CCCCOC(=O)N3CC[C@@](C(=O)N[C@@H](Cc4ccccc4F)C(=O)N[C@@H](Cc4csc5ccccc45)C(=O)N[C@@H](CCC(N)=O)C(N)=O)(C3)NC(=O)[C@H](CC(N)=O)NC(=O)[C@H](Cc3ccccc3)NC(=O)[C@H](C)NC(=O)[C@H](C)NC(=O)[C@H](CC(=O)O)NC(=O)[C@H](CC(=O)O)NC1=O)NC(=O)[C@H](CC(C)(C)C)NC(=O)[C@H](CC(=O)O)NC2=O (stereo partly drawn)	44 µM

###

Molecular target: full-length beta-Catenin (Uniprot ID P35222) (Homo sapiens, UniProt P35222)
Construct: 10 nM full-length beta-Catenin (Uniprot ID P35222)
Sequence (P35222 whole entry): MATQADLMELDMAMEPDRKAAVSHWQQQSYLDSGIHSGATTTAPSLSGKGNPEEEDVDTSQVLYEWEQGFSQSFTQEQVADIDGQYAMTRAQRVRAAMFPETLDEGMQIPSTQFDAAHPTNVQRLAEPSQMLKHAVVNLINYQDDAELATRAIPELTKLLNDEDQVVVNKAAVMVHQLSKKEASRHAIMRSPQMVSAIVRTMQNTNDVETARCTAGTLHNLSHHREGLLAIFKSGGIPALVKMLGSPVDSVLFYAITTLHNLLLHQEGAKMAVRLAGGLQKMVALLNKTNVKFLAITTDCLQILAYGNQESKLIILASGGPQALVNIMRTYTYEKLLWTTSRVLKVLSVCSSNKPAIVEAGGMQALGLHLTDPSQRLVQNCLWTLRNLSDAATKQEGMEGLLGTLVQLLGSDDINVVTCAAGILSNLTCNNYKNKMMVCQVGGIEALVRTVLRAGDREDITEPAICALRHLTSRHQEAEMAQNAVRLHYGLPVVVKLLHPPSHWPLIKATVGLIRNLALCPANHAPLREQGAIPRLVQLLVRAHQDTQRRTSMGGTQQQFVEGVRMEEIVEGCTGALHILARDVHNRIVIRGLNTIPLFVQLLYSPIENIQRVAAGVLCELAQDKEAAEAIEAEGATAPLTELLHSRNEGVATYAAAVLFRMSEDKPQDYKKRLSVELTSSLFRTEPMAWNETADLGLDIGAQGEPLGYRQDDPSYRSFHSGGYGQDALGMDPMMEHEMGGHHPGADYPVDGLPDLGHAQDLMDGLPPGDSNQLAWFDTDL
Experiment: Fluorescence polarization IC50 (beta-catenin / 5FAM-TCF4 10-53 competition)
Type: binding
Conditions: fluorescence polarization, beta-catenin; read-out: FP EC50

compound	IC50 [µM]
CC(=O)N1CCC[C@]12CC=CCCCC1(CCCC=CCCCOC(=O)N3CC[C@@](C(=O)N[C@@H](Cc4ccsc4)C(=O)N[C@@H](Cc4csc5ccccc45)C(=O)N[C@@H](CO)C(N)=O)(C3)NC(=O)[C@H](CC(C)C)NC(=O)[C@H](Cc3ccccc3)NC(=O)[C@H](C)NC(=O)[C@H](C)NC(=O)[C@H](Cc3cccc(C(=O)O)c3)NC(=O)[C@H](CC(=O)O)NC1=O)NC(=O)[C@H](CC(C)(C)C)NC(=O)[C@H](CC(=O)O)NC2=O (stereo partly drawn) [I-986]	0.136
CC(=O)N1CCC[C@]12CC=CCCCC1(CCCC=CCCCCCC[C@@](C)(C(=O)N[C@@H](Cc3ccccc3)C(=O)N[C@@H](Cc3c[nH]c4ccccc34)C(=O)N[C@@H](CCC(N)=O)C(N)=O)NC(=O)[C@H](C(C)C)NC(=O)[C@H](Cc3cccc(Cl)c3)NC(=O)[C@H](C)NC(=O)[C@H](C)NC(=O)[C@H](CC(=O)O)NC(=O)[C@H](CC(=O)O)NC1=O)NC(=O)[C@H](C)NC(=O)[C@H](CC(=O)O)NC2=O (stereo partly drawn)	4.2
CC(=O)N1CCC[C@]12CC=CCCCC1(CCCC=CCCCCOC(=O)N3CC[C@@](C(=O)N[C@@H](Cc4ccsc4)C(=O)N[C@@H](Cc4csc5ccccc45)C(=O)N[C@@H](CCC(N)=O)C(=O)N[C@@H](C)C(N)=O)(C3)NC(=O)[C@H](CC(N)=O)NC(=O)[C@H](Cc3ccccc3)NC(=O)[C@H](C)NC(=O)[C@H](C)NC(=O)[C@H](CC(=O)O)NC(=O)[C@H](CC(=O)O)NC1=O)NC(=O)[C@H](CC(C)(C)C)NC(=O)[C@H](CC(=O)O)NC2=O (stereo partly drawn) [I-826]	0.015
CC(=O)N1CCC[C@]12CC=CCCCC1(CCCC=CCCCOC(=O)N3CC[C@@](C(=O)N[C@@H](Cc4ccsc4)C(=O)N[C@@H](Cc4csc5ccccc45)C(=O)N[C@@H](CCC(N)=O)C(N)=O)(C3)NC(=O)[C@H](CO)NC(=O)[C@H](Cc3ccccc3)NC(=O)[C@H](C)NC(=O)[C@H](C)NC(=O)[C@H](Cc3cccc(C(=O)O)c3)NC(=O)[C@H](CC(=O)O)NC1=O)NC(=O)[C@H](CC(C)(C)C)NC(=O)[C@H](CC(=O)O)NC2=O (stereo partly drawn) [I-978]	0.112
CC(=O)N1CCC[C@]12CC=CCCCC1(CCCC=CCCCOC(=O)N3CC[C@@](C(=O)N[C@@H](Cc4ccsc4)C(=O)N[C@@H](Cc4csc5ccccc45)C(=O)N[C@@H](CO)C(N)=O)(C3)NC(=O)[C@H](CO)NC(=O)[C@H](Cc3ccccc3)NC(=O)[C@H](C)NC(=O)[C@H](C)NC(=O)[C@H](Cc3cccc(C(=O)O)c3)NC(=O)[C@H](CC(=O)O)NC1=O)NC(=O)[C@H](CC(C)(C)C)NC(=O)[C@H](CC(=O)O)NC2=O (stereo partly drawn) [I-984]	0.179
CC(=O)N1CCC[C@]12CC=CCCCC1(CCCC=CCCCOC(=O)N3CC[C@@](C(=O)N[C@@H](Cc4ccsc4)C(=O)N[C@@H](Cc4csc5ccccc45)C(=O)N[C@@H](Cc4ccc(O)cc4)C(N)=O)(C3)NC(=O)[C@H](CC(N)=O)NC(=O)[C@H](Cc3ccccc3)NC(=O)[C@H](C)NC(=O)[C@H](C)NC(=O)[C@H](CN(CC(=O)O)CC(F)(F)F)NC(=O)[C@H](CC(=O)O)NC1=O)NC(=O)[C@H](CC(C)(C)C)NC(=O)[C@H](CC(=O)O)NC2=O (stereo partly drawn) [I-953]	1.46
CC(=O)N1CCC[C@]12CC=CCCCC1(CCCC=CCCCCCC[C@@](C)(C(=O)N[C@@H](Cc3ccccc3F)C(=O)N[C@@H](Cc3c[nH]c4ccccc34)C(=O)N[C@@H](CCC(N)=O)C(N)=O)NC(=O)[C@H](C(C)C)NC(=O)[C@H](Cc3ccccc3)NC(=O)[C@H](C)NC(=O)[C@H](C)NC(=O)[C@H](CC(=O)O)NC(=O)[C@H](CC(=O)O)NC1=O)NC(=O)[C@H](C)NC(=O)[C@H](CC(=O)O)NC2=O (stereo partly drawn) [I-319]	1.42
CC(=O)N1CCC[C@]12CC=CCCCC1(CCCC=CCCCOC(=O)N3CC[C@@](C(=O)N[C@@H](Cc4ccccc4C(F)(F)F)C(=O)N[C@@H](Cc4csc5ccccc45)C(=O)N[C@@H](CCC(N)=O)C(N)=O)(C3)NC(=O)[C@H](CC(N)=O)NC(=O)[C@H](Cc3ccccc3)NC(=O)[C@H](C)NC(=O)[C@H](C)NC(=O)[C@H](CN(CC(=O)O)CC(F)(F)F)NC(=O)[C@H](CC(=O)O)NC1=O)NC(=O)[C@H](CC(C)(C)C)NC(=O)[C@H](CC(=O)O)NC2=O (stereo partly drawn) [I-927]	0.011
CC(=O)N1CCC[C@]12CC=CCCCC1(CCCC=CCCCOC(=O)N3CC[C@@](C(=O)N[C@@H](Cc4ccsc4)C(=O)N[C@@H](Cc4csc5ccccc45)C(=O)N[C@@H](CCO)C(N)=O)(C3)NC(=O)[C@H](CC(N)=O)NC(=O)[C@H](Cc3ccccc3)NC(=O)[C@H](C)NC(=O)[C@H](C)NC(=O)[C@H](CN(CC(=O)O)CC(F)(F)F)NC(=O)[C@H](CC(=O)O)NC1=O)NC(=O)[C@H](CC(C)(C)C)NC(=O)[C@H](CC(=O)O)NC2=O (stereo partly drawn) [I-950]	1.63
